Field: TGI. Provide a value for each of the compounds that follow.
tested on: K-562 leukemia; experiment: NCI tumour cell line growth inhibition, 48 h
Give bare numbers, in µM.

O=C1C2c3[nH]c4ccccc4c3[C@@H]3CCCCCCCCCCC3C2C(=O)N1c1ccccc1 (some centres undefined) :: 29.5
Cl.[Pt].[c-]1ccccc1-c1ccccn1.c1ccc(P(c2ccccc2)C([PH+](c2ccccc2)c2ccccc2)[PH+](c2ccccc2)c2ccccc2)cc1 :: 13.6

For the next question, use this compound.
State the recorded TGI for this entry: CCC1(CC)C(=O)CC[C@@]2(C)C1=CC[C@H]1[C@@H]3CC[C@H](O)[C@@]3(C)CC[C@@H]12 37.3

* * *

test system: IGROV1 ovarian; experiment: NCI tumour cell line growth inhibition, 48 h
readout: TGI

O=C(NCc1cccnc1)/C(=C\c1ccc(Br)cc1)S(=O)(=O)c1ccccc1 :: 2.11 µM
NC(Cc1cc(I)c(O)c(I)c1)C(=O)O (stereo not drawn) :: > 500 µM
COP(=O)(OC)C(N)CCSC (stereo not drawn) :: > 100 µM
Clc1nc(-[n+]2ccc(-c3ccncc3)cc2)nc(Nc2ccccc2)c1Cl :: > 100 µM
CC1(C)O[C@@H](CO)[C@H]([C@@]23OC[C@H]4OC(C)(C)OC4[C@@H]2OC(C)(C)O3)O1 (stereo partly drawn) :: > 100 µM
CCCCCCCCCCCC(=O)OCC1OC(n2cc(F)c(=O)[nH]c2=O)C(NC(=O)OCc2ccccc2)C(O)C1O (stereo not drawn) :: > 100 µM
COc1ccc(/C=C/c2cc(O)cc(OC)c2)cc1 :: > 100 µM

# input for lookup
Looking for the measured TGI of O=S1(=O)NNC(=NCc2ccc(Cl)cc2)c2ccccc21 , can you help? > 100 µM

* * *

tested on: SK-MEL-2 melanoma; assay: NCI tumour cell line growth inhibition, 48 h
readout: TGI

Below are worked cases with known answers.
COc1ccc(/C(C)=C(\c2ccc(Cl)cc2)c2ccc(OCCN3CCCC3)cc2)cc1 :: 11.6 µM
CC1(C)O[C@@H](CO)[C@H]([C@@]23OC[C@H]4OC(C)(C)OC4[C@@H]2OC(C)(C)O3)O1 (stereo partly specified) :: > 100 µM
CC(=O)NS(=O)(=O)c1ccc(NC(=O)COC(=O)c2cccc3c(=O)c4ccccc4[nH]c23)cc1 :: > 100 µM
O=C(O)c1c(O)c2cc(Br)ccc2oc1=O :: > 100 µM
CC1(C)COC(c2cccc(C3=NC(C)(C)CO3)c2Br)=N1 :: > 100 µM

Record TGI for all entries; do not skip any.
1. O=C1NC(=O)/C(=C/C=C/c2ccccc2)S1
2. COC(=O)[C@H](C)N1C(=O)N[C@@H](C(C)C)C1=O
3. C=CCC(CNC(=O)OCc1ccccc1)O[Si](C)(C)C(C)(C)C (stereo unspecified)
4. OCC1OC(n2cnc3cccnc32)CC1O (stereo unspecified)
5. C=CN1C(=O)OC(c2ccccc2)C1c1ccccc1 (stereo unspecified)
6. COc1ccc(/C=C/c2c(C(=O)/C=C/c3ccc(Cl)cc3)c(C)nc3ccccc23)cc1
7. CCOC(=O)c1ccc2nc(NC(=O)COC(=O)CSc3nc(C)cc(C)n3)sc2c1

["> 79.3 µM", "> 100 µM", "34.9 µM", "> 100 µM", "> 100 µM", "4.06 µM", "> 100 µM"]

* * *

system: MDA-MB-231 breast; experiment: NCI tumour cell line growth inhibition, 48 h
Give TGI for every item shown.

Worked cases, TGI given:
S=C(N/N=C\C=N/NC(=S)N1CCCCCC1)N1CCCCCC1 :: > 100 µM
N#CCCC1C(C#N)C2CC1C1C3C=CC(C3)C21 (stereo unspecified) :: > 100 µM
Cn1nc(C(F)(F)F)c(-c2ccc(Cl)c(C(F)(F)F)c2)c1-c1ccc(OCc2ccc(Cl)cc2)cc1O :: 5.41 µM

For every record below, what is its TGI?
1. N#Cc1c(NC(=O)c2ccccc2)sc2c1CCC(=O)C2
2. CCOC(=O)c1nc2c3c(ncn2n1)Oc1c(c(-c2ccccc2)nn1-c1ccccc1)C3c1ccc(Cl)cc1 (stereo unspecified)
3. CC(=O)NC1C(CO)O[C@@H]2OC(C)(C)O[C@H]12 (stereo partly specified)

1. 6.28 µM
2. > 100 µM
3. > 100 µM

* * *

test system: OVCAR-8 ovarian; assay: NCI tumour cell line growth inhibition, 48 h
readout: TGI

// below: answered compounds
CCC1C(C)c2c([nH]c3ccccc23)C2C(=O)N(c3ccccc3)C(=O)C21 (centres undefined) :: 28.7 µM
Cn1c2ccccc2c(=Nc2ccccc2)c2c3ccccc3[nH]c21 :: 10.2 µM
CC[C@]12C=CCN3CCC4(c5cc(N=Nc6ccccc6)c(OC)cc5N(C)[C@H]4[C@@](O)(C(=O)OC)[C@@H]1OC(C)=O)[C@@H]32 (some centres undefined) :: 42.2 µM

Please state TGI for every compound in the list that follows.
1. CCOC(=O)C1N(S(=O)(=O)c2ccc(C)cc2)CCC12c1ccccc1N(C(C)=O)C2C(/C=C/C(=O)OC)=C/C(=O)OC (centres undefined)
2. O=NC1c2cccc3cccc(c23)C1N=O (centres undefined)
3. CC(C)C[C@H](NC(=O)[C@H](CCc1ccccc1)NC(=O)CN1CCOCC1)C(=O)N[C@@H](Cc1ccccc1)C(=O)N[C@@H](CC(C)C)C(=O)[C@@]1(C)CO1
4. O=C(/C=C/c1ccc(-c2ccccc2[N+](=O)[O-])o1)NCc1ccc(C(=O)NCCc2ccccc2)cc1
5. O=C(CC(=O)N1N=C(c2ccccc2)C(N=Nc2ccc(C(=O)O)cc2)C1=O)Nc1ccc(F)cc1 (centres undefined)
6. CCOC(=O)c1ccc(C(=O)C(C(C)=O)C(=O)OC(C)(C)C)n1C (centres undefined)
7. COC(=O)C(=O)C1(CCC(C)=O)c2ccccc2-c2ccccc21
8. N#Cc1c(NC(=O)c2ccccc2)sc2c1CCC(=O)C2

["> 100 µM", "6.65 µM", "0.0952 µM", "> 100 µM", "> 100 µM", "> 100 µM", "> 100 µM", "45 µM"]

* * *

system: SN12C renal; assay: NCI tumour cell line growth inhibition, 48 h
Hi there, I'd appreciate the recorded TGI for every entry that follows.

Hi! Can you tell me TGI for each of these compounds?
1. Cn1c(=O)c2c(-c3ccccc3)onc2n(C)c1=O
2. Cc1c2c3cc(O)ccc3nc-2n(C)c2ccccc12
3. COc1cc([C@@H]2c3cc4c(cc3[C@@H](NC(=O)c3ccc(N)cc3)C3COC(=O)[C@@H]32)OCO4)cc(OC)c1O (stereo partly drawn)
4. CCc1nnc(-n2c(C)nc3cc(Cl)ccc3c2=O)s1
5. COc1ccc(/C=C/c2cc(O)cc(OC)c2)cc1
6. CC(C)[C@@H]1C=C(c2ccccc2)c2ccccc2C1C(C#N)(C#N)C(C)C (stereo partly drawn)

> 100 µM
4.38 µM
4.54 µM
> 100 µM
> 100 µM
> 100 µM

Record TGI for all entries; do not skip any.
1. Cn1c2c([N+](=O)[O-])[se]nc2c(=O)n1-c1ccc([N+](=O)[O-])cc1
2. Nc1ccc2c(c1)C(=O)c1ccccc1-2

1: 3.46 µM; 2: > 100 µM

* * *

tested on: OVCAR-8 ovarian; assay: NCI tumour cell line growth inhibition, 48 h
readout: TGI (µM)
Numbers only, in µM.

Check out these entries, answers already filled in.
CCCCCc1cc2c(cc1O)CC[C@@H]1[C@@H]2CC[C@]2(C)[C@@H](O)CC[C@@H]12 :: 43
COc1cc([C@@H]2c3cc4c(cc3[C@@H](NC(=O)c3ccc(N)cc3)C3COC(=O)[C@@H]32)OCO4)cc(OC)c1O (stereo not given in full) :: 16.3

The record that follows has no TGI shown yet.
What reported TGI corresponds to CC(=O)Oc1ccc(OC(C)=O)c2ccccc12 on OVCAR-8 ovarian? 22.7

* * *

tested on: U251 CNS; assay: NCI tumour cell line growth inhibition, 48 h
Give log10(TGI) for every item shown.
# values: log10(TGI), units µM

Solved entries:
Nc1ccc(-c2nc3ccc4[nH]ncc4c3c3c2CCCC3)cc1F :: 0.95
O=[N+]([O-])c1cccc([N+](=O)[O-])c1S(=O)(=O)c1ccccc1 :: 1.36
O=C(NCc1cccnc1)/C(=C\c1ccc(Br)cc1)S(=O)(=O)c1ccccc1 :: 0.35
COc1ccc(OC)c(-c2nc3sccn3c2/C=C2/C(=O)Nc3ccc(Cl)cc32)c1 :: 1.87

Here's the next entry for you.
Quick check: log10(TGI) of COc1ccc(C2OC(=O)c3c2ccc2ccccc32)c(C)c1 (stereo not given) ? 1.31

* * *

I'd appreciate it if you could supply TGI values for the items below.
test system: HCT-15 colon; test: NCI tumour cell line growth inhibition, 48 h

Reference set (8 entries):
Nc1ncnc2c1c(C(F)(F)F)cn2[C@@H]1O[C@H](CO)[C@@H](O)[C@H]1O :: > 100 µM
N#Cc1cccc(NC(=O)c2ccc(C(=O)O)c(C(=O)c3ccc(C(=O)O)c(C(=O)Nc4cccc(C#N)c4)c3)c2)c1 :: > 100 µM
COc1ccc(/C(C)=C(\c2ccc(Cl)cc2)c2ccc(OCCN3CCCC3)cc2)cc1 :: 4.35 µM
O=C(O)/C=C(/CC(=O)O)C(=O)O :: 54 µM
CN(CCc1ccc(Cl)c(Cl)c1)[C@H]1CCCC[C@H]1N1CCCC1 :: > 100 µM
COC(=O)c1sc(=S)sc1SCc1ccccc1CSc1sc(=S)sc1C(=O)OC :: > 100 µM
Cc1cc(Cc2c(F)c(F)c(Cc3cc(C)no3)c(F)c2F)on1 :: > 100 µM
CCCn1c(C23CC4CC(CC(C4)C2)C3)nc2ccc(Cl)cc2c1=O :: > 100 µM

Report TGI for each item below.
1. Nc1ccc(-c2nc3ccc4[nH]ncc4c3c3c2CCCC3)cc1F
2. Cn1c(=O)c2c(-c3ccccc3)onc2n(C)c1=O

["8.05 µM", "> 100 µM"]
